Tested on: MDCKII-MDR1 cells
Assay: Transport and cell association across MDCKII-MDR1 monolayers
Assay type: in vitro ADME
Conditions: absorptive direction, with 5 × 10^−6 M LSN 335984, 5 × 10^−6 M dye, BSA
Let's look at some compounds and their measured PAB (+ inh).

Example results:
Identify PAB (+ inh) associated with the compound CN(C)c1ccc2c(-c3ccc(C(=O)N4CCCCC4)s3)c3cc4c5c(c3[s+]c2c1)CCCN5CCC4.F[P-](F)(F)(F)(F)F
≤ 1 ≤ 1 10^−9 m s^−1

Identify PAB (+ inh) associated with the compound CCN(CC)C(=O)c1ccc(-[c+]2c3ccc(N(C)C)cc3sc3cc4c(cc32)C(C)(C)CCN4C)s1.F[P-](F)(F)(F)(F)F
≤ 1 ≤ 1 10^−9 m s^−1

// switching to the query compound
Identify PAB (+ inh) associated with the compound CCN(CC)C(=S)c1ccc(-[c+]2c3ccc(N(C)C)cc3sc3cc4c(cc32)C(C)(C)CCN4C)s1.F[P-](F)(F)(F)(F)F
≤ 1 ≤ 1 10^−9 m s^−1
